# System: CCRF-CEM leukemia
# assay: NCI-60 one-dose screen, 48 h (100 = growth as untreated, 0 = no growth, -100 = all killed)
# condition label: 10 µM unless noted
The panel holds about 83,000 compounds, 20% with a hit somewhere; the sample as a whole holds those more often.

compound | assay system | growth / %
O=CC(Br)C(Br)c1ccccc1 (stereo unspecified) | CCRF-CEM leukemia | -1.8
N#CC1=C(N)Oc2cc3c(cc2C1c1cccs1)OCO3 (stereo unspecified) | CCRF-CEM leukemia | 21.4
NS(=O)(=O)c1nc[nH]c1[N+](=O)[O-] | CCRF-CEM leukemia | 106
CC(C)CCC[C@@H](C)[C@H]1CC[C@H]2[C@@H]3CC=C4C[C@@H](OC(=O)Cc5ccc(N(CCCl)CCCl)cc5)CC[C@]4(C)[C@H]3CC[C@]12C | CCRF-CEM leukemia | 120
C#CC1(O)CCC2(C)C(CCC3C4CCC(=O)C4(C)CCC32)C1 (stereo unspecified) | CCRF-CEM leukemia | 91.2
COc1cc(N(CCCl)CCCl)ccc1C=Nc1ccccc1C(=O)O | CCRF-CEM leukemia | 97.5
CCN(CC)c1ccc(C=C2C(=O)NC(=S)NC2=O)cc1 | CCRF-CEM leukemia | 38.9
C[C@]12CC[C@H](OC3OC(O)C(O)C(O)C3O)C=C1CCC1C2CC[C@]2(C)[C@@H](c3ccc(=O)oc3)CC[C@]12O (stereo partly specified) | CCRF-CEM leukemia | -33.8
COC(=O)C1CC2c3ccccc3C1c1ccccc12 (stereo unspecified) | CCRF-CEM leukemia | 83.4
CCOc1cc(C=C(C#N)C#N)cc(Br)c1O | CCRF-CEM leukemia | 102
COC(=O)C[Se]C(=O)c1ccccc1OC(C)=O | CCRF-CEM leukemia | 76.6
COc1cc(C2CC(=O)Nc3nc(N)[se]c32)cc(OC)c1OC (stereo unspecified) | CCRF-CEM leukemia | 96
C=CCN1C(=O)C(CC)(CCC(C)C)C(=O)NC1=S (stereo unspecified) | CCRF-CEM leukemia | 86.3
O=S(=O)(Cl)c1ccccc1 (tested in a mixture with another compound) | CCRF-CEM leukemia | 114
C/C1=C/C(=O)O[C@@H]2C[C@@H](CC[C@H](C)/C=C\C=C\CC1)O[C@@](OCCc1ccccc1)([C@@H]1CSC(=O)N1)C2 | CCRF-CEM leukemia | 21.2
COc1ccccc1N1CCN(CCc2c[nH]c3cc4c(cc23)OCO4)CC1 | CCRF-CEM leukemia | 75.4

----------
# Test system: HL-60(TB) leukemia
# assay: NCI-60 one-dose screen, 48 h
# condition label: 10 µM unless noted
# Method: Growth inhibition of the HL-60(TB) human tumor cell line is measured as a screen for anti-cancer activity. Cells are grown in 96 well plates and exposed to the test compound for 48 hours. Compounds are tested at a single concentration, which is 10^-5 M for most compounds. The reported endpoint is percent growth (GI% or GIPRCNT), where numbers from 0 - 100% represent growth inhibition, and numbers from -100% - 0 represent cell death. For example, a value of 40 represents 60% growth inhibition. […]
The panel holds about 83,000 compounds, 20% with a hit somewhere; the sample as a whole holds those more often. Active and inactive are the calls of the source. The calls were made as follows: active = growth percent below 10; inactive = the rest.
Outcome codes: TRUE for active, FALSE for inactive

molecule | label value
COc1cc(-c2csc(NC(=O)c3cc(C(F)(F)F)cc(C(F)(F)F)c3)n2)cc(OC)c1OC | FALSE
[2H]C([2H])([2H])Oc1c(F)cccc1/C=C/C(=O)/C=C(O)/C=C/c1cccc(F)c1OC([2H])([2H])[2H] | FALSE
NS(=O)(=O)c1ccc(CCn2c(SCC(=O)N/N=C/c3ccccc3O)nc3ccccc3c2=O)cc1 | TRUE
O=C(c1ccccc1)N(CCCl)C(=O)N(CCCl)C(=O)c1ccccc1 | FALSE
Nc1nc(-c2ccccc2Br)nn1-c1nc2ccccc2s1 | FALSE
CC(C)c1[nH]nc2c(NCc3ccc(-c4ccccn4)cc3)nc(SCCN(C)C)nc12 | TRUE
COc1ccc(-c2nc3sccn3c2-c2ccnc(NCCNS(=O)(=O)c3ccc(C(F)(F)F)cc3)n2)cc1 | TRUE
O=S(=O)(NC1c2ccccc2Oc2ccccc21)c1cc(Cl)ccc1Cl | FALSE
O=C(/C=C/c1cn(-c2ccccc2)nc1-c1ccccc1)CCC(=O)NO | FALSE
O=C(c1ccc(Cl)cc1)N1CCCCC1 | FALSE
O=C1CNc2cc(Cl)ccc2N1 | FALSE
NC(=S)NS(=O)(=O)c1ccc(N)cc1 | FALSE
O=C(N=c1oc2ccccc2cc1-c1cc2ccccc2[nH]1)c1ccc(Cl)cc1 | FALSE
S=c1[nH]nc(-c2cc3ccc2CCc2ccc(cc2)CC3)n1-c1ccccc1 | FALSE
N#CC1=C(N)Oc2c(sc3c(F)cccc23)C1c1ccc([N+](=O)[O-])cc1 (configuration not stated) | TRUE
NNC(=O)CSc1nc2scc(-c3ccccc3)c2c(=O)n1-c1ccccc1 | FALSE
COc1cccc(-c2nnc(COc3ccc(-c4nc5ccccc5[nH]4)cc3OC)o2)c1 | FALSE
C=C1c2c(C)nn(-c3ccc(NC(C)=O)cc3)c2N(C)C23CC1C1(C)c4c(C)nn(-c5ccc(NC(C)=O)cc5)c4N(C)C(C)(CC12)C3 (configuration not stated) | TRUE
COc1ccc(O)c(-c2cc(-c3ccc(Cl)cc3)c(C#N)c(=O)[nH]2)c1 | FALSE
O=C(OCc1ccc2c(Br)cc(Br)c(O)c2n1)N1CCN(C(=O)c2cc3ccccc3[nH]2)CC1 | FALSE
Nc1ccc(-c2nc3cc(Oc4ccc(Oc5ccc6[nH]c(-c7ccc(N)cc7)nc6c5)cc4)ccc3[nH]2)cc1 | FALSE
COc1ccccc1OCC(=O)N1CCCCCC1 | FALSE
CN(C)c1nc(N)nc(Cn2c(-c3nonc3N)nc3ccccc32)n1 | FALSE
COc1cc(/C=C/c2cc(/C=C/c3ccc(O)c(OC)c3)n(C(=O)Nc3ccc(F)cc3)n2)ccc1O | TRUE
FC(F)(F)Oc1ccc2nc3nc4ccc[nH]c4cc3c2c1 | FALSE
O=C(c1ccccc1)C1OC1C(=O)c1ccccc1 (configuration not stated) | FALSE
c1ccc2sc(SCCCn3ccnc3)nc2c1 | FALSE

----------
# Test system: MOLT-4 leukemia
# assay: NCI-60 one-dose screen, 48 h (100 = growth as untreated, 0 = no growth, -100 = all killed)
# condition label: 10 µM
Compounds without any hit were thinned out: in the full panel of roughly 83,000, 20% have a hit.
Examples of molecules with documented growth follow.

compound smiles | assay system | growth (%)
COC(=O)C[Se]C(=O)c1ccccc1OC(C)=O | MOLT-4 leukemia | 86
C[As](=O)(O)c1ccc(C(=O)O)cc1 | MOLT-4 leukemia | 110
COc1ccc(/C=C(/C(=O)N2CCCC2)c2cc(OC)c(OC)c(OC)c2)cc1N | MOLT-4 leukemia | 34.4
CC(=O)O[C@@H]1C2=C(C)C3(CC3)[C@@](C)(O)C(=O)C2=C[C@@]1(C)CO | MOLT-4 leukemia | 5.2
Nc1c(Br)cc([N+](=O)[O-])cc1[N+](=O)[O-] | MOLT-4 leukemia | 97.2

----------
Examples of compounds with documented growth follow.
# System: SR leukemia
# assay: NCI-60 one-dose screen, 48 h (100 = growth as untreated, 0 = no growth, -100 = all killed)
# condition label: 10 µM
# Description: Growth inhibition of the SR human tumor cell line is measured as a screen for anti-cancer activity. Cells are grown in 96 well plates and exposed to the test compound for 48 hours. Compounds are tested at a single concentration, which is 10^-5 M for most compounds. The reported endpoint is percent growth (GI% or GIPRCNT), where numbers from 0 - 100% represent growth inhibition, and numbers from -100% - 0 represent cell death. For example, a value of 40 represents 60% growth inhibition. […]
About 83,000 compounds went through this panel and 20% of them were active in at least one assay; those are over-represented in the sample as a whole.
outcome measure: growth (%)

compound | recorded value
c1ccc2nc(OCCN3CC3)ccc2c1 | -13.3
O=CC(Br)C(Br)c1ccccc1 (centres undefined) | 16.1
C/C(=N/OC(=O)N(C)C)c1ccc(Cl)cc1Cl | 87.2
COc1ccc(C2=NN(c3ccccc3)C(c3sc(N(CCCl)CCCl)nc3Cl)C2)cc1 (centres undefined) | 86.1
Cc1cc(NC(=O)NCCOc2ccc(N3C(N)=NC(N)=NC3(C)C)cc2Cl)ccc1S(=O)(=O)F | 34.8
NCCc1cc(O)c(O)cc1O | 98
c1cnc2c(c1)ccc1ncccc12 | 110
O=C(Nc1ccc(S(=O)(=O)F)cc1)Oc1ccccc1 | 99.9
COc1cc(C2(C#N)CCN(C)CC2)cc(OC)c1OC | 91.2
COc1ccc(C2SCC(=O)Nc3c2c(C)nn3-c2nc3ccc(C)cc3s2)cc1O (centres undefined) | 9.81
O=C(CC1(O)C(=O)Nc2ccc(F)cc21)c1ccc(C(=O)NCC2CCC3(CC2)OOC2(CCCCC2)OO3)cc1 (centres undefined) | -43.2
NS(=O)(=O)c1nc[nH]c1[N+](=O)[O-] | 102
CC1(C)CC2(CC(C)(C)c3cc(O)c(O)cc32)c2cc(O)c(O)cc21 | 70.3
C=CC(O)CN1CC1CC (centres undefined) | 89.9
COc1cc(CNCCc2ccc(Cl)cc2)cc(OC)c1O | 14.5
CN1CC2CCC(C1)C2=O | 82.7
OB([O][Hg][c]1ccccc1)[O][Hg][c]1ccccc1 | -15.2
NC(Cc1ccc2c(c1)OCO2)c1ccc2c(c1)OCO2 (centres undefined) | 83.9
CC12CCC(=O)C=C1CCC1C2CCC2(C)C(C(=O)COC(=O)Cc3ccc(N(CCCl)CCCl)cc3)CCC12 (centres undefined) | -2.48
O=C(N/N=C/c1ccc([N+](=O)[O-])o1)c1cc([N+](=O)[O-])cc([N+](=O)[O-])c1O | 70.7
CO[C@@H]([CH2][Hg][S]C#N)[C@@H]([CH2][Hg][S]C#N)OC | 66.5
O=C1NC(=O)C(=Cc2cn(Cc3ccccc3)c3ccccc23)C(=O)N1 | 71.4
CC1(C)N=C(N)N=C(N)N1c1cccc(C(=O)Nc2cccc(S(=O)(=O)F)c2)c1 | 104
N#[N+]c1cnc([O-])[nH]c1=O | 64.8
CC(=O)Nc1ccc(C=C2C(=O)NC(=O)NC2=O)cc1 | 95.7
ClCCN(CCCl)c1ccc(C=NCCc2c[nH]c3ccccc23)cc1 | 31.9
COC(=O)C(=[N+]=[N-])C(=O)OC | 100
CC(=O)N1N=C(c2ccccc2)CC1c1sc(N(CCCl)CCCl)nc1Cl (centres undefined) | 86.4
O=C(NCCNC(=O)c1ccc([As](O)O)cc1)c1ccc([As](O)O)cc1 | 101
